# method: Tryptophan fluorescence, binding to lipid vesicles
# measurement_parameters: PC/PG (7:3, w/w) vesicles versus HEPES buffer, lipid:peptide 50:1, peptide 2 μM
As shown below, each of these substances has a reported Blue shift in emission maximum value.

{"substance": "Ac-KWKSFLKTFKSAKKTELHTALKAISS-NH2 [Peptide V16E]", "Blue shift in emission maximum [nm]": 17}
{"substance": "Ac-KWKSFLKTFKSAKKTGLHTALKAISS-NH2 [Peptide V16G]", "Blue shift in emission maximum [nm]": 21}
{"substance": "Ac-KWKSFLKTFKSAKKTALHTALKAISS-NH2 [Peptide V16A]", "Blue shift in emission maximum [nm]": 22}
{"substance": "Ac-KWKSFLKTFKSAKKTLLHTALKAISS-NH2 [Peptide V16L]", "Blue shift in emission maximum [nm]": 23}
{"substance": "Ac-KWKSFLKTFKSAKKTKLHTALKAISS-NH2 [Peptide V16K]", "Blue shift in emission maximum [nm]": 21}
{"substance": "Ac-KWKSFLKTFKSAKKTSLHTALKAISS-NH2 [Peptide V16S]", "Blue shift in emission maximum [nm]": 22}

----------
# method: Analytical RP-HPLC retention time as a measure of peptide hydrophobicity
# Format: physicochemical
# measurement_parameters: RP-HPLC at 25 °C, Zorbax 300 SB-C8 column, linear AB gradient, A 0.1% aqueous TFA, B 0.1% TFA in acetonitrile, 1 mL/min, detection at 210 nm
measure: tR, retention time during RP-HPLC (relative hydrophobicity)

{"substance": "Ac-KWKSFLKTFKSAKKTALHTALKAISS-NH2 [Peptide V16A]", "observed": "36.6 min"}
{"substance": "Ac-KWKSFLKTFKSAKKTELHTALKAISS-NH2 [Peptide V16E]", "observed": "34.6 min"}
{"substance": "Ac-KWKSFLKTFKSAKKTSLHTALKAISS-NH2 [Peptide V16S]", "observed": "34.3 min"}
{"substance": "Ac-KWKSFLKTFKSAKKTKLHTALKAISS-NH2 [Peptide V16K]", "observed": "32.2 min"}
{"substance": "Ac-KWKSFLKTFKSAKKTGLHTALKAISS-NH2 [Peptide V16G]", "observed": "33.6 min"}
{"substance": "Ac-KWKSFLKTFKSAKKTLLHTALKAISS-NH2 [Peptide V16L]", "observed": "40.4 min"}

----------
# Tested on: P. aeruginosa H188
# Assay type: cell-based
# measurement_parameters: H188, 24 h

{"substance": "Ac-KWKSFLKTFKSAKKTALHTALKAISS-NH2 [Peptide V16A]", "MIC, µg/mL": 4}
{"substance": "Ac-KWKSFLKTFKSAKKTLLHTALKAISS-NH2 [Peptide V16L]", "MIC, µg/mL": 2}
{"substance": "Ac-KWKSFLKTFKSAKKTGLHTALKAISS-NH2 [Peptide V16G]", "MIC, µg/mL": 8}
{"substance": "Ac-KWKSFLKTFKSAKKTELHTALKAISS-NH2 [Peptide V16E]", "MIC, µg/mL": 64}
{"substance": "Ac-KWKSFLKTFKSAKKTKLHTALKAISS-NH2 [Peptide V16K]", "MIC, µg/mL": 16}
{"substance": "Ac-KWKSFLKTFKSAKKTSLHTALKAISS-NH2 [Peptide V16S]", "MIC, µg/mL": 4}

----------
# method: Tryptophan fluorescence, binding to lipid vesicles
# measurement_parameters: PC/PG (7:3, w/w) vesicles, lipid and peptide in a molar ratio of 50:1, peptide 2 μM, lipid 100 μM, excitation 280 nm
measure: Tryptophan fluorescence emission maximum (nm)

{"substance": "Ac-KWKSFLKTFKSAKKTALHTALKAISS-NH2 [Peptide V16A]", "observed": 328}
{"substance": "Ac-KWKSFLKTFKSAKKTGLHTALKAISS-NH2 [Peptide V16G]", "observed": 329}
{"substance": "Ac-KWKSFLKTFKSAKKTKLHTALKAISS-NH2 [Peptide V16K]", "observed": 329}
{"substance": "Ac-KWKSFLKTFKSAKKTLLHTALKAISS-NH2 [Peptide V16L]", "observed": 326}
{"substance": "Ac-KWKSFLKTFKSAKKTSLHTALKAISS-NH2 [Peptide V16S]", "observed": 328}
{"substance": "Ac-KWKSFLKTFKSAKKTELHTALKAISS-NH2 [Peptide V16E]", "observed": 333}

----------
# method: CD spectroscopy, helicity in benign buffer and in 50% TFE
# Assay type: physicochemical
# measurement_parameters: CD at 222 nm, 25 °C, KP buffer (100 mM KCl, 50 mM K2HPO4/KH2PO4, pH 7.0), peptide 75 μM
# Protocol: The secondary structures of peptides were determined in benign buffer and in a hydrophobic environment (50% trifluoroethanol, TFE) to mimic the hydrophobic environment of the membrane. […] Circular dichroism spectra were measured with a 0.02 cm path length quartz cuvette on a Jasco J-810 spectropolarimeter (Jasco, Tokyo, Japan) at 25 °C. […]
As shown below, each of these substances has a reported [θ]222, mean residue molar ellipticity, benign value.
measure: [θ]222, mean residue molar ellipticity, benign

{"substance": "Ac-KWKSFLKTFKSAKKTALHTALKAISS-NH2 [Peptide V16A]", "observed": "−3,057 degree·cm^2·dmol^−^1"}
{"substance": "Ac-KWKSFLKTFKSAKKTLLHTALKAISS-NH2 [Peptide V16L]", "observed": "−3,595 degree·cm^2·dmol^−^1"}
{"substance": "Ac-KWKSFLKTFKSAKKTKLHTALKAISS-NH2 [Peptide V16K]", "observed": "−1,990 degree·cm^2·dmol^−^1"}
{"substance": "Ac-KWKSFLKTFKSAKKTSLHTALKAISS-NH2 [Peptide V16S]", "observed": "−1,760 degree·cm^2·dmol^−^1"}
{"substance": "Ac-KWKSFLKTFKSAKKTELHTALKAISS-NH2 [Peptide V16E]", "observed": "−3,465 degree·cm^2·dmol^−^1"}
{"substance": "Ac-KWKSFLKTFKSAKKTGLHTALKAISS-NH2 [Peptide V16G]", "observed": "−2,839 degree·cm^2·dmol^−^1"}

----------
# method: CD spectroscopy, helicity in benign buffer and in 50% TFE
# Assay type: physicochemical
# measurement_parameters: KP buffer pH 7.0, 25 °C; relative to the molar ellipticity of peptide V16E in 50% TFE
Outcome label depends on % helix, benign relative to 10%: at/above gives class 1, below gives class 0.

{"substance": "Ac-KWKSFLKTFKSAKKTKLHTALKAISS-NH2 [Peptide V16K]", "group": "class 0"}
{"substance": "Ac-KWKSFLKTFKSAKKTGLHTALKAISS-NH2 [Peptide V16G]", "group": "class 0"}
{"substance": "Ac-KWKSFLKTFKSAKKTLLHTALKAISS-NH2 [Peptide V16L]", "group": "class 1"}
{"substance": "Ac-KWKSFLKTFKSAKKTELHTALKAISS-NH2 [Peptide V16E]", "group": "class 1"}
{"substance": "Ac-KWKSFLKTFKSAKKTSLHTALKAISS-NH2 [Peptide V16S]", "group": "class 0"}
